OUTCOME MEASURE: melting point

Some solved cases for reference:
>>> df
                         structure_notation       reported
0  CCOC(=O)c1ccc(-n2cc(C#N)nc2-c2ccc(OC)cc2)cc1  139 to 140 °C
1  COc1ccc(-c2nc(C(F)(F)F)cn2-c2ccc(Br)cc2)cc1  140 to 141 °C
2  CCOC(=O)c1cn(-c2ccc(OC)cc2)c(-c2ccc(OC)cc2)n1  142 to 143 °C
3  COc1ccc(-n2cc(C(F)(F)F)nc2-c2ccc(OC)nc2)cc1    90 to 92 °C
4   COc1ccc(-c2nc(C)cn2-c2ccc(OC)cc2)cc1.Cl  203 to 205 °C

Task: Dear colleague, I am looking for the recorded melting point of the following compound: `COc1ccc(-n2cc(C#N)nc2-c2ccc(OC)nc2)cc1`
Output: 130 to 132 °C

Task: Name the reported melting point value associated with the compound `CCN(C)C(=O)c1cn(-c2ccc(OCc3ccccc3)cc2)c(-c2ccc(OC)cc2)n1`
Output: 118 to 119 °C

Task: Item under review: `CCC(=O)c1cn(-c2ccc(O)cc2)c(-c2ccc(OC)nc2)n1` . Reported melting point?
Output: 221 to 223 °C

Task: Look at this compound and give its reported melting point. `COc1ccc(-n2cc(C(F)F)nc2-c2ccc(OC)nc2)cc1`
Output: 106 to 107 °C

Task: Recorded melting point of `CCN(CC)C(=O)c1cn(-c2ccc(OCc3ccccc3)cc2)c(-c2ccc(OC)cc2)n1` , please.
Output: 146 to 147 °C

Task: Endpoint output: melting point of `COc1ccc(-c2nc(C(F)F)cn2-c2ccc(OC)cc2)cc1.Cl` . Value?
Output: 150 to 153 °C

---

OUTCOME MEASURE: melting point

Task: State the recorded melting point for this entry: `COc1ccc(-c2nc(C3CC3)cn2-c2ccc(OC)cc2)cc1.Cl`
Output: 180 to 181 °C

Task: Using the record for `COc1ccc(-c2nc(C(=O)C(C)C)cn2-c2ccc(O)cc2)cn1` , report its melting point.
Output: 185 to 187 °C

---

Recorded melting point values for a group of compounds are listed next.

Task: Can you look up the measured melting point of `COc1ccc(-c2nc(C(F)(F)F)cn2-c2ccc(O)cc2)cn1` for me?
Output: 198 to 200 °C

Task: I'd like to know its melting point. The compound in question is `COc1ccc(-c2nc(C(F)(F)F)cn2-c2ccc(O)cc2)cc1`
Output: 215 to 216 °C

Task: So what does the record say about melting point for `COc1ccc(-c2nc(C(=O)C(C)C)cn2-c2ccc(OCc3ccccc3)cc2)cn1` ?
Output: 118 to 120 °C

---

Reported melting point is given for each of the following molecules.

Reference set, count: 4
>>> print(df.to_string())
                         structure_notation       reported
0    COc1ccc(-c2nc(C#N)cn2-c2ccc(OC)cc2)cc1  132 to 134 °C
1  CCOC(=O)c1cn(-c2ccc(OC)cc2)c(-c2ccc(OC)nc2)n1  135 to 137 °C
2  CCOC(=O)c1cn(-c2ccc(OCc3ccccc3)cc2)c(-c2ccc(OC)nc2)n1  109 to 110 °C
3  COc1ccc(-c2nc(C(C)=O)cn2-c2ccc(OC)cc2)cc1  116 to 117 °C

Continue with the molecule presented below.
Task: I'd like to know its melting point. The molecule in question is `COc1ccc(-c2nc(C#N)cn2-c2ccc(C#N)cc2)cc1`
Output: 185 to 186 °C
